Tested on: RPMI-8226
Assay: NCI tumour cell line growth inhibition, 48 h
Active and inactive are the calls of the source. Rule as the data show it: active = GI50 up to about 1.1 µM and inactive = higher.
Reply using exactly one outcome from 1.0 for active, 0.0 for inactive

Some solved entries appear below for comparison.
Molecule: CC(C)C[C@H](NC(=O)[C@H](Cc1cccc2ccccc12)NS(=O)(=O)c1cccc2cccnc12)B(O)O
Class: 1.0
--
Molecule: Nc1nnc(O)c2c1c(I)cn2C1OC(CO)C(O)C1O (stereo not drawn)
Class: 1.0
--
Molecule: COc1ccccc1/C=C/c1ccnc2ccccc12
Class: 0.0
--
Molecule: CCc1nc(N)c2nc(-c3cccs3)oc2n1
Class: 0.0
--
Molecule: COC(=O)/C=C1/OC(c2ccccc2)=C(Cl)C1=O
Class: 0.0

Record lookup: outcome of this test for Cc1ncc([N+](=O)[O-])n1CCn1ccnc1[N+](=O)[O-] ?
0.0

Record lookup: outcome of this test for N=C(CCl)NC1CN2CCC1CC2 (stereo not drawn) ?
0.0

Record lookup: outcome of this test for O=C(CN1CCN(Cc2ccccc2)CC1)c1ccc2[nH]c(=O)oc2c1 ?
0.0

Record lookup: outcome of this test for Cc1ccc(C(=O)Nc2ccc(CP(=O)(O)O)cc2CP(=O)(O)O)cc1NC(=O)Nc1cc(C(=O)Nc2ccc(CP(=O)(O)O)cc2CP(=O)(O)O)ccc1C ?
0.0

Record lookup: outcome of this test for COc1ccc(/C=N\NC(=O)Nc2cccc3ccccc23)cc1 ?
0.0

Record lookup: outcome of this test for CC(C)C[C@H]1[C@@H](OCc2ccccc2)COS(=O)N1[C@H](C)c1ccccc1 (stereo partly drawn) ?
0.0

Record lookup: outcome of this test for CCN(CC)CCN1C=CC(C)C(C(=O)O)C1C(N)=O (stereo not drawn) ?
0.0

Record lookup: outcome of this test for CSC(=S)N(C)NC(=O)c1cccc(C(=O)NN(C)C(=S)SC)n1 ?
0.0

Record lookup: outcome of this test for c1ccc2c(c1)[nH]c1c3ccccc3sc21 ?
0.0

Record lookup: outcome of this test for Cn1c2ccc(F)cc2c2ccc3c(c21)C(=O)C=CC3=O ?
0.0

Record lookup: outcome of this test for Nc1[nH]c(=O)[nH]c(=O)c1Cc1cccc(Cl)c1 ?
0.0

====

Test system: HOP-62
Assay: NCI tumour cell line growth inhibition, 48 h
The source made the active and inactive calls. Cut-off read from the data, not from the text of the source: active = GI50 up to about 1.1 µM and inactive = higher.
Reply using exactly one outcome from active, inactive

Compound: CC(C)(C)c1ccc(-c2nnc(SCc3ccc(Cl)cc3)n2-c2cccc(C(F)(F)F)c2)cc1
Class: inactive

Compound: O=CC1=CCCN(CCc2c[nH]c3ccccc23)C1
Class: inactive

Compound: COc1cccc2c(N)c3cccc(C(=O)NCCN(C)C)c3nc12
Class: active

Compound: Cc1cn(C2C=CC(=O)C(C)O2)c(=O)[nH]c1=O (centres undefined)
Class: inactive

Compound: C#CCN(N=O)C(=O)NCCCCC(NC(C)=O)C(=O)NCc1ccccc1 (centres undefined)
Class: inactive

Record lookup: outcome of this test for COc1ccc2/c(=C/c3ccc(N(C)C)cc3)c3cc(-c4ccccc4)[n+](C)n3c2c1 ?
active

Record lookup: outcome of this test for CC(=O)OCCOCn1c2ccccc2c2c3c(c4c5ccccc5n(COCCOC(C)=O)c4c21)C(=O)N(Cc1ccccc1)C3=O ?
inactive

Record lookup: outcome of this test for COC(=O)C1=C(C)N(NC(=O)c2ccccc2)C(C)(O)C12CCOC2=O (centres undefined) ?
inactive

Record lookup: outcome of this test for COc1cccc2c1C(=O)c1c(O)c3c(c(O)c1C2=O)C[C@@](O)(C(=O)CO)C[C@@H]3OC1CC(N(C)C)C(O)C(C)O1 (some centres undefined) ?
active

====

System: BT-549
Assay: NCI tumour cell line growth inhibition, 48 h
Activity calls are given as the source filed them. Cut-off read from the data, not from the text of the source: active = GI50 up to about 1.1 µM and inactive = higher.
Measured Metric: GI50

// below: answered compounds
Compound: O=C1CCCC2=C1CC1=C(CCCC1=O)N2c1ccc([N+](=O)[O-])cc1
Measured Metric: GI50
Obs Value: > 100 µM (inactive)
//
Compound: CCCCCCCCCCCCCCCCCCN(C)CC(COP(=O)([O-])OCC[N+](C)(C)C)OC (centres undefined)
Measured Metric: GI50
Obs Value: 38.5 µM (inactive)
//
Compound: CC(=O)OCC(OC(C)=O)C(OC(C)=O)C(OC(C)=O)C(/C=N\Nc1nc2ccccc2c(=O)[nH]1)OC(C)=O (centres undefined)
Measured Metric: GI50
Obs Value: > 100 µM (inactive)
//
Compound: C[C@H](CCC(=O)NCC(=O)O)[C@H]1CC[C@H]2[C@@H]3[C@H](O)C[C@@H]4C[C@H](O)CC[C@]4(C)[C@H]3CC[C@]12C
Measured Metric: GI50
Obs Value: > 100 µM (inactive)
//
Compound: CCc1nc(N)c2nc(-c3cccs3)oc2n1
Measured Metric: GI50
Obs Value: > 100 µM (inactive)

So what's the measured GI50 for this one? COC(=O)[C@H](NC(=O)OC(C)(C)C)[C@H]1COC(C)(C)O1
> 100 µM (inactive)

So what's the measured GI50 for this one? CCN(CC)CCNc1nc2ccc([N+](=O)[O-])cc2[n+]([O-])n1
73.8 µM (inactive)

So what's the measured GI50 for this one? O=C(NCCO)Nc1c(C(F)(F)F)cc(-c2ccccc2)[nH]c1=O
> 100 µM (inactive)

So what's the measured GI50 for this one? CCOC(=O)Nc1c(C#N)[n+]([O-])c2cc(Cl)c(Cl)cc2[n+]1[O-]
15.6 µM (inactive)

====

GI50 values, listed per item
Tested on: HL-60
Test: NCI tumour cell line growth inhibition, 48 h
Active and inactive are the calls of the source. Cut-off read from the data, not from the text of the source: active = GI50 up to about 1.1 µM and inactive = higher.

Molecule: CC(CCN)(CCN)[N+](=O)[O-]
GI50: > 100 µM (inactive)
--
Molecule: CC/C(Cl)=N\OC(=O)Nc1ccc(OC)cc1
GI50: 1.85 µM (inactive)
--
Molecule: CN(/N=C/c1cccs1)c1ccc([N+](=O)[O-])cc1[N+](=O)[O-]
GI50: > 100 µM (inactive)
--
Molecule: Cc1cn(C2C=CC(=O)C(C)O2)c(=O)[nH]c1=O (stereo not given)
GI50: 14.7 µM (inactive)
--
Molecule: C/C(=N\NC(=S)N1CCC(C2CCN(C(=S)N/N=C(\C)c3ccccn3)CC2)CC1)c1ccccn1
GI50: > 100 µM (inactive)

Next molecule, GI50 to be filled in.
So what's the measured GI50 for this one? COc1ccc2cc(CNCCOCCOCCNCc3ccc4cc(OC)ccc4c3)ccc2c1
0.216 µM (active)

====

Tested on: MOLT-4
Assay: NCI tumour cell line growth inhibition, 48 h
Calls of active or inactive are those of the source. Cut-off read from the data, not from the text of the source: active = GI50 up to about 1.1 µM and inactive = higher.
Reply using exactly one outcome from active, inactive

Some solved entries appear below for comparison.
Compound: CC1(C)CN=C(Nc2ccc(F)c(Cl)c2)S1
Study System: MOLT-4
Class: inactive
--
Compound: CN(C)c1ccc(/C=C2\C[C@H]3[C@@H]4CC=C5C[C@@H](O)CC[C@]5(C)[C@H]4CC[C@]3(C)C2=O)cc1
Study System: MOLT-4
Class: inactive
--
Compound: CC(=O)O[C@@H]1[C@H](OC2CCCCC2(c2ccccc2)c2ccccc2)O[N+]([O-])=CC12CCCCC2 (some centres undefined)
Study System: MOLT-4
Class: inactive
--
Compound: CS/C(Nc1ccccc1)=C1\C(=O)N(c2ccccc2)N=C1C
Study System: MOLT-4
Class: inactive

Record lookup: outcome of this test for CCOC(=O)c1cc2cc(CSc3ccccc3)ccc2oc1=O ?
inactive

Record lookup: outcome of this test for CN(C)CCNc1nc(-c2cccs2)cc(-c2cccs2)n1 ?
inactive

Record lookup: outcome of this test for CCCCCCCC(=O)O[C@H]1[C@H]2[C@@H](CC1(C)C)C(=O)[C@]13O[C@H]1C(=O)[C@]1(CO1)[C@]23C ?
active

Record lookup: outcome of this test for CC(=O)Oc1cc(-c2oc3cc(OC(C)=O)c(C4OC(CO)C(O)C(O)C4O)c(OC(C)=O)c3c(=O)c2O)c(OC(C)=O)cc1O (centres undefined) ?
inactive

Record lookup: outcome of this test for CC1(C)CC(=O)C(CC2C(=O)c3ccccc3C2=O)C(=O)C1C(=O)C(=O)Nc1cccc2ccc(O)cc12 (centres undefined) ?
inactive

====

Test system: UACC-62
Experiment: NCI tumour cell line growth inhibition, 48 h
The source made the active and inactive calls. Cut-off read from the data, not from the text of the source: active = GI50 up to about 1.1 µM and inactive = higher.
Reply using exactly one outcome from active, inactive

Molecule: O=C1Nc2ccccc2/C1=C\c1c(Cl)n(-c2ccccc2)c2ccccc12
Study System: UACC-62
Class: inactive

Record lookup: outcome of this test for Cc1ccc(SSCCCCS(=O)O)cc1 ?
inactive

Record lookup: outcome of this test for COC(=O)CC1CC2(C(=O)OC)c3[nH]c4ccccc4c3CCN2C1=O (stereo not given) ?
inactive

Record lookup: outcome of this test for COc1ccc2/c(=C/c3ccc(N(C)C)cc3)c3cc(-c4ccccc4)[n+](C)n3c2c1 ?
active

Record lookup: outcome of this test for CCOC(=O)C1=C(C)NC(c2ccccc2)=C(C(=O)OCc2ccccc2)C1C#Cc1ccccc1 (stereo not given) ?
inactive

Record lookup: outcome of this test for CCc1cccc(C)c1NC(=O)C(=O)CC(=O)c1ccc(Cl)s1 ?
inactive

Record lookup: outcome of this test for CC(C)=CCC[C@@H](C)C1=C(O)C(=O)C(C)=C(N)C1=O ?
inactive

Record lookup: outcome of this test for O=C1c2cc3c(cc2CC12Cc1cc4c(cc1C2=O)CCCC4)CCCC3 ?
inactive

Record lookup: outcome of this test for CCOC(=O)C1NCCc2c1[nH]c1ccccc21 (stereo not given) ?
inactive

Record lookup: outcome of this test for C=CCC1=CC2(OC)C(=O)C(OC)(OC)C1C1C(OC)(OC)C(=O)C(OC)=CC12CC=C (stereo not given) ?
inactive
